The measured values listed here are drawn from patent US12421249B2.

# target_entity: APOL1 (Homo sapiens, UniProt O14791)
# Sequence (O14791 1-398 S342G/I384M): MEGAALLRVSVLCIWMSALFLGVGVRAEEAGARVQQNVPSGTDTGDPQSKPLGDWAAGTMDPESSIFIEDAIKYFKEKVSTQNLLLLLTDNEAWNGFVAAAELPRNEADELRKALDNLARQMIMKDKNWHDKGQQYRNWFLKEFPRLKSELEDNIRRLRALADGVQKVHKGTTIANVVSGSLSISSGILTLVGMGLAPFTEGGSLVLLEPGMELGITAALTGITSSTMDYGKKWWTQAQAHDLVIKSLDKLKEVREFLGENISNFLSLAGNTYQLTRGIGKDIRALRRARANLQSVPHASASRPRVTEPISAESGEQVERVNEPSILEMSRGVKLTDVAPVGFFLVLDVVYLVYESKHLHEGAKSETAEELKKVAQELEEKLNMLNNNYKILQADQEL
# assay_info: Multi-Tox Assay (MultiTox-Fluor Multiplex Cytotoxicity Assay in tet-inducible APOL1 T-REx-HEK293 cells; Table 46 does not say which APOL1 variant G0/G1/G2)
# Format: cell-based
# condition_info: APOL1 variant not given
experimental_readout: Multi-Tox Assay Max Activity (%)

compound	target_entity	quantity_unit	value_reported
C[C@H]1C[C@@]2(C[C@@H](c3cn(C[C@@H](O)CO)nn3)N1)OC[C@@H](O)c1cc(Cl)sc12	APOL1 (Homo sapiens, UniProt O14791)	%	97.0
COCC(O)Cn1cc([C@@H]2C[C@]3(C[C@H](C)N2)OC[C@@H](O)c2cc(Cl)sc23)nn1 (stereo partly shown)	APOL1 (Homo sapiens, UniProt O14791)	%	100.0
C[C@H]1C[C@@]2(C[C@@H](c3cn(Cc4cnccn4)nn3)N1)OC[C@@H](O)c1cc(Cl)sc12	APOL1 (Homo sapiens, UniProt O14791)	%	100.0
CC1COC2(C[C@@H](c3cn(C)nn3)N[C@@H](C)C2)c2cc(Cl)sc21 (stereo in doubt) [Compound 13]	APOL1 (Homo sapiens, UniProt O14791)	%	99.0

* * *

# target_entity: APOL1 G1 (Homo sapiens, UniProt O14791, I384M/S342G)
# assay_info: Trypanosoma brucei brucei Lysis Assay Using APOL1 Recombinant Protein (AlamarBlue viability readout)
# Format: cell-based
# condition_info: Trypanosome Assay; IP50 = IC50 for cell proliferation; read-out: Trypanosome Assay IP50
pIC50: −log10 of the molar value.
# pIC50 annotations
experimental_readout: pIC50

compound	target_entity	experimental_readout	value_reported
C[C@H]1C[C@@]2(C[C@@H](c3cn(C)nn3)N1)OCC(F)(F)c1cc(Cl)sc12 [Compound 183]	APOL1 G1 (Homo sapiens, UniProt O14791, I384M/S342G)	pIC50	6.30 to 7.30
C[C@H]1C[C@@]2(C[C@@H](c3ccccn3)N1)OCCc1cc(Cl)sc12 (racemic) [Compound 83]	APOL1 G1 (Homo sapiens, UniProt O14791, I384M/S342G)	pIC50	> 7.30
C[C@H]1C[C@@]2(C[C@@H](c3ccc(S(N)(=O)=O)cc3F)N1)OCCc1cc(Cl)sc12 (racemic) [Compound 78]	APOL1 G1 (Homo sapiens, UniProt O14791, I384M/S342G)	pIC50	> 7.30
CCc1c[nH]c([C@@H]2C[C@]3(C[C@H](C)N2)OCCc2cc(Cl)sc23)n1 (racemic) [Compound 153]	APOL1 G1 (Homo sapiens, UniProt O14791, I384M/S342G)	pIC50	< 6.30
C[C@H]1C[C@@]2(C[C@@H](c3ccccc3)N1)OCCc1cc(Cl)sc12 (racemic) [Compound 81]	APOL1 G1 (Homo sapiens, UniProt O14791, I384M/S342G)	pIC50	> 7.30
C[C@H]1C[C@@]2(C[C@@H](c3cnc4n3CCOC4)N1)OCCc1cc(Cl)sc12 (racemic) [Compound 149]	APOL1 G1 (Homo sapiens, UniProt O14791, I384M/S342G)	pIC50	< 6.30
Cc1nc2c([C@@H]3C[C@]4(C[C@H](C)N3)OCCc3cc(Cl)sc34)cccc2o1 (racemic) [Compound 170]	APOL1 G1 (Homo sapiens, UniProt O14791, I384M/S342G)	pIC50	< 6.30
CC1COC2(C[C@@H](c3cn(C)nn3)N[C@@H](C)C2)c2cc(Cl)sc21 (stereo in doubt) [Compound 13]	APOL1 G1 (Homo sapiens, UniProt O14791, I384M/S342G)	pIC50	> 7.30
COc1ccc([C@@H]2C[C@]3(C[C@H](C)N2)OCCc2cc(Cl)sc23)cc1C#N (racemic) [Compound 62]	APOL1 G1 (Homo sapiens, UniProt O14791, I384M/S342G)	pIC50	> 7.30
C[C@H]1C[C@@]2(C[C@@H](c3ccc4c(c3)NC(=O)CO4)N1)OCCc1cc(Cl)sc12 (racemic) [Compound 54]	APOL1 G1 (Homo sapiens, UniProt O14791, I384M/S342G)	pIC50	> 7.30
Clc1cc2c(s1)C1(C[C@@H](C3CC3)N[C@@H](C3CC3)C1)OCC2 (single isomer, unassigned) [Compound 206]	APOL1 G1 (Homo sapiens, UniProt O14791, I384M/S342G)	pIC50	6.30 to 7.30
COc1cc(O)cc([C@@H]2C[C@]3(C[C@H](C)N2)OCCc2cc(Cl)sc23)c1 (racemic) [Compound 137]	APOL1 G1 (Homo sapiens, UniProt O14791, I384M/S342G)	pIC50	6.30 to 7.30
CC1CC2(CC(C3CCC3)N1)OCCc1cc(Cl)sc12 (mixture of isomers) [Compound 218]	APOL1 G1 (Homo sapiens, UniProt O14791, I384M/S342G)	pIC50	6.30 to 7.30
COc1ccc(C2CC3(CC(C)N2)OCCc2cc(Cl)sc23)nn1 (mixture of isomers) [Compound 76]	APOL1 G1 (Homo sapiens, UniProt O14791, I384M/S342G)	pIC50	> 7.30
CC1CC2(CC(C3CC3)N1)OCCc1cc(Cl)sc12 (mixture of isomers) [Compound 217]	APOL1 G1 (Homo sapiens, UniProt O14791, I384M/S342G)	pIC50	> 7.30
CCc1cc2c(s1)C1(C[C@@H](C)N[C@@H](C)C1)OCC2 (single isomer, unassigned) [Compound 199]	APOL1 G1 (Homo sapiens, UniProt O14791, I384M/S342G)	pIC50	6.30 to 7.30
COc1nccc([C@@H]2C[C@]3(C[C@H](C)N2)OCCc2cc(Cl)sc23)n1 (racemic) [Compound 110]	APOL1 G1 (Homo sapiens, UniProt O14791, I384M/S342G)	pIC50	6.30 to 7.30
C[C@H]1C[C@@]2(C[C@@H](c3ccc(C(F)(F)F)nc3)N1)OCCc1cc(Cl)sc12 (racemic) [Compound 123]	APOL1 G1 (Homo sapiens, UniProt O14791, I384M/S342G)	pIC50	> 7.30
COc1ccc(C2CC3(CC(C)N2)OCCc2cc(Cl)sc23)nc1 (stereo not drawn) [Compound 34]	APOL1 G1 (Homo sapiens, UniProt O14791, I384M/S342G)	pIC50	> 7.30
COCC1CC2(CC(c3cn(C)nn3)N1)OCCc1cc(C(F)(F)F)sc12 (stereo not drawn) [Compound 193]	APOL1 G1 (Homo sapiens, UniProt O14791, I384M/S342G)	pIC50	6.30 to 7.30
C[C@H]1C[C@@]2(C[C@@H](c3ncccc3O)N1)OCCc1cc(Cl)sc12 (racemic) [Compound 172]	APOL1 G1 (Homo sapiens, UniProt O14791, I384M/S342G)	pIC50	< 6.30
C[C@H]1C[C@@]2(C[C@@H](c3ccc(N(C)C)nc3)N1)OCCc1cc(Cl)sc12 (racemic) [Compound 89]	APOL1 G1 (Homo sapiens, UniProt O14791, I384M/S342G)	pIC50	> 7.30
C[C@H]1C[C@@]2(C[C@@H](CC3CCOCC3)N1)OCCc1cc(Cl)sc12 [Compound 219]	APOL1 G1 (Homo sapiens, UniProt O14791, I384M/S342G)	pIC50	< 6.30
CC1COC2(C[C@@H](c3cn(C)nn3)N[C@@H](C)C2)c2cc(Cl)sc21 (stereo in doubt) [Compound 12]	APOL1 G1 (Homo sapiens, UniProt O14791, I384M/S342G)	pIC50	> 7.30
CC1CC2(CC(c3cccnc3)N1)OCCc1cc(Cl)sc12 (racemic) [Compound 20]	APOL1 G1 (Homo sapiens, UniProt O14791, I384M/S342G)	pIC50	> 7.30
Cc1cc2c(s1)C1(C[C@@H](c3cn(C)nn3)N[C@@H](C)C1)OCC2 (stereo in doubt) [Compound 3]	APOL1 G1 (Homo sapiens, UniProt O14791, I384M/S342G)	pIC50	> 7.30
Cc1nccnc1[C@@H]1C[C@]2(C[C@H](C)N1)OCCc1cc(Cl)sc12 (racemic) [Compound 164]	APOL1 G1 (Homo sapiens, UniProt O14791, I384M/S342G)	pIC50	< 6.30
C[C@H]1C[C@@]2(C[C@@H](c3cccc(-c4cn[nH]c4)c3)N1)OCCc1cc(Cl)sc12 (racemic) [Compound 148]	APOL1 G1 (Homo sapiens, UniProt O14791, I384M/S342G)	pIC50	6.30 to 7.30
CC1CC2(CC(c3cncnc3)N1)OCCc1cc(Cl)sc12 (stereo not drawn) [Compound 45]	APOL1 G1 (Homo sapiens, UniProt O14791, I384M/S342G)	pIC50	> 7.30
Cc1ncc([C@@H]2C[C@]3(C[C@H](C)N2)OCCc2cc(Cl)sc23)o1 (racemic) [Compound 94]	APOL1 G1 (Homo sapiens, UniProt O14791, I384M/S342G)	pIC50	> 7.30
